Tested on: SARS-CoV-2 (WK-521)
Experiment: microbe, parasite or virus in culture
Format: cell-based
Settings: Severe acute respiratory syndrome coronavirus 2, 72 h, read-out: EC50 (50% effective concentration, inhibits cell death induced by SARS-CoV-2 infection by 50%); VeroE6/TMPRSS2 cells, SARS-CoV-2 WK-521, MOI 0.01, 3 days; Tables 1-4
Property Label: EC50 (µM)
Numbers only, in µM.

Use these answered entries as a reference point.
INSERT INTO results (compound, property_label, result_value) VALUES
  ('CCCN(CCC)Cc1cc(Nc2ncnc3ccccc23)cc(Cl)c1O', 'EC50', 15.3),
  ('CCN(Cc1cc(Nc2ncnc3ccccc23)cc(Cl)c1O)C(C)(C)C', 'EC50', 3.9),
  ('CC1CC(C)CN(Cc2cc(Nc3ncnc4ccccc34)cc(Cl)c2O)C1 (stereo not shown)', 'EC50', 2.1),
  ('CCNCc1cc(Nc2ncnc3ccccc23)cc(I)c1O', 'EC50', 44.7),
  ('C[C@@H]1CN(Cc2cc(Nc3ncnc4ccccc34)cc(Cl)c2O)[C@@H](C)CN1C (racemic)', 'EC50', 54.7),
  ('CCN(Cc1cc(Nc2ncnc3ccccc23)cc(Cl)c1O)CC(C)(C)C', 'EC50', 20);

For every item below, please supply its EC50.
1. CCN(CC)Cc1cc(Nc2ncnc3cc(OC)c(OC)cc23)cc(I)c1O
2. CC(C)N(Cc1cc(Nc2ncnc3ccccc23)cc(Cl)c1O[C@H]1O[C@@H](C)[C@@H](O)[C@@H](O)[C@@H]1O)C(C)C
3. CCN(Cc1cc(Nc2ncnc3ccccc23)cc(Cl)c1O)c1ccc(Cl)cc1
4. CC(C)N(Cc1cc(Nc2ncnc3cc(F)ccc23)cc(Cl)c1O)C(C)C

[31.6, 60.2, 10, 2.5]

Cited source for all entries: patent US20250325547A1
